# TARGET_UNDER_TEST: HNF4alpha8 (COS-7 nuclear extract) (Homo sapiens, UniProt P41235-5 1-452)
# Sequence: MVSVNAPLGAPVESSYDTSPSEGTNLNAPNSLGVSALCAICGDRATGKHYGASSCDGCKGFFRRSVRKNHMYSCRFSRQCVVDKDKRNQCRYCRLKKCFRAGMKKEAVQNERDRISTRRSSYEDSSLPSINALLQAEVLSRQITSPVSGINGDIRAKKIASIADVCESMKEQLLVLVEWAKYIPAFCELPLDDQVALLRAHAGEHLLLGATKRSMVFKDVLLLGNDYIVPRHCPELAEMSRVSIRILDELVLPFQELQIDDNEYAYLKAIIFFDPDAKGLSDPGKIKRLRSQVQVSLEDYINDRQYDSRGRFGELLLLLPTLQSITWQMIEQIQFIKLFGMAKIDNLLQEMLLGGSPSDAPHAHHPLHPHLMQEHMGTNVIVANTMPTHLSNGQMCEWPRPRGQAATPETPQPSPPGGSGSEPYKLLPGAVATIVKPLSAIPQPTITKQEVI
# PROTOCOL: protein-binding microarray; COS-7 nuclear extract on double-stranded Agilent 4x180k PBM; binding buffer, salt, pH and temperature not given in the material; high values mean tight binding
# CONDITION_SUMMARY: chain copies: 2; label: 3' end of strand 1 on the slide; dsDNA, one strand shown
The full ranking holds about 18,000 sequences; the median of “log2 normalized intensity” is about 0.36, and the highest 2% start at about 7.3. Only a selection was taken, and the highest values are over-represented in it overall.
Below is a list of entries, each paired with its recorded binding signal value.

RECORD_SEQUENCE	binding signal (log2 normalized intensity)
GTTCTATGGGATGACCTTTGAGCAATAGGAGCCTAGGGAGATTAGAGTATCGGTCGA	6.05
CCTCGAGGCAACCTTTGACCTGGTACTATGGCCTAGGGAGATTAGAGTATCGGTCGA	6.8
AGAAGTTGGACTTTGTACATTCCAAATACGGCCTAGGGAGATTAGAGTATCGGTCGA	7.64
TTAGGATGACCTTTAGATTCTTACAGGCAAGCCTAGGGAGATTAGAGTATCGGTCGA	4.57
GGGCGAGAGAGTTCTATGGGATGACCTTTGGCCTAGGGAGATTAGAGTATCGGTCGA	6.82

* * *

// reported binding signal per item
# TARGET_UNDER_TEST: HNF4alpha8 (COS-7 nuclear extract) (Homo sapiens, UniProt P41235-5 1-452)
# Sequence: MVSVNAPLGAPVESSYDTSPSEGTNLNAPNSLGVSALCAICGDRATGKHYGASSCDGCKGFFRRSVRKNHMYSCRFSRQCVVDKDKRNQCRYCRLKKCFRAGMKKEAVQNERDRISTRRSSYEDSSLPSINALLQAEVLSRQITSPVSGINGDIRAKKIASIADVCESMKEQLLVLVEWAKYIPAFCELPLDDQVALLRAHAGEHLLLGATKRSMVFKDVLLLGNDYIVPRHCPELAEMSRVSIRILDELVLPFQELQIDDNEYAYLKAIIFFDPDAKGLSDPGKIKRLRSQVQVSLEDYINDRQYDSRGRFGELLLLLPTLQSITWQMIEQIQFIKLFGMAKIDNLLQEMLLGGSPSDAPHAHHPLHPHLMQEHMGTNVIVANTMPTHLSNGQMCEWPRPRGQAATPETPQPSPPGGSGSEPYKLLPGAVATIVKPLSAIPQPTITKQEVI
# PROTOCOL: protein-binding microarray; COS-7 nuclear extract on double-stranded Agilent 4x180k PBM; binding buffer, salt, pH and temperature not given in the material; high values mean tight binding
# CONDITION_SUMMARY: chain copies: 2; label: 3' end of strand 1 on the slide; dsDNA, one strand shown
Whole data set: some 18,000 sequences, median “log2 normalized intensity” near 0.36, cut for the highest 2% near 7.3. The sample holds the highest values, similar sequences and a random draw of the others, so the mix is not that of the screen.

RECORD_SEQUENCE	TARGET_UNDER_TEST	binding signal
GAAAATATTTCTCTGAACTTTGACCTATAGGCCTAGGGAGATTAGAGTATCGGTCGA	HNF4alpha8 (COS-7 nuclear extract) (Homo sapiens, UniProt P41235-5 1-452)	9.31 log2 normalized intensity
ATCTCCAGATAAGACTTTGGACTTTGGACCGCCTAGGGAGATTAGAGTATCGGTCGA	HNF4alpha8 (COS-7 nuclear extract) (Homo sapiens, UniProt P41235-5 1-452)	11.8 log2 normalized intensity
AGGTGCAAAGTACATATTTACTTACCTTTTGCCTAGGGAGATTAGAGTATCGGTCGA	HNF4alpha8 (COS-7 nuclear extract) (Homo sapiens, UniProt P41235-5 1-452)	3.68 log2 normalized intensity

* * *

# TARGET_UNDER_TEST: HNF4alpha8 (COS-7 nuclear extract) (Homo sapiens, UniProt P41235-5 1-452)
# Sequence: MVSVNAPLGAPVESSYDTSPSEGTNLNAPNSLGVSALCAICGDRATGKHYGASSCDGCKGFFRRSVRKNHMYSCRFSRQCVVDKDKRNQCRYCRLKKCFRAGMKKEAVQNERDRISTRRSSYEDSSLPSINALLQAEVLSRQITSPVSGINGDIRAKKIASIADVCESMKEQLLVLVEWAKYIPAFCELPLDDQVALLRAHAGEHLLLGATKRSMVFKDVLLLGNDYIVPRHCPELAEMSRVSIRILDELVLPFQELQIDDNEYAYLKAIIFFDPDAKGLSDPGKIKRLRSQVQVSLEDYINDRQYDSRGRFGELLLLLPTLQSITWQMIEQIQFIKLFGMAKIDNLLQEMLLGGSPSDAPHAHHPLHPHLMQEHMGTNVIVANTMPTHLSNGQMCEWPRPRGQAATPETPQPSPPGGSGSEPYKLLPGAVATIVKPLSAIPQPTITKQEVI
# PROTOCOL: protein-binding microarray; COS-7 nuclear extract on double-stranded Agilent 4x180k PBM; binding buffer, salt, pH and temperature not given in the material; high values mean tight binding
# CONDITION_SUMMARY: chain copies: 2; label: 3' end of strand 1 on the slide; dsDNA, one strand shown
The full ranking holds about 18,000 sequences; the median of “log2 normalized intensity” is about 0.36, and the highest 2% start at about 7.3. This excerpt belongs to a sample that is enriched for the highest values.

RECORD_SEQUENCE	binding signal [log2 normalized intensity]
TCTACTCCCTGTTCTTACACCTGCTCCCCTGCCTAGGGAGATTAGAGTATCGGTCGA	2.97
ACAGCAGTGGACTTTGACCTTGGCACTGAAGCCTAGGGAGATTAGAGTATCGGTCGA	9.68
GCAAATGTGTCTTTTTTAGTCAGCATAGTTGCCTAGGGAGATTAGAGTATCGGTCGA	1.34
CTGACCTCAAGTGACCTTTGACCTCTGGCCGCCTAGGGAGATTAGAGTATCGGTCGA	11.2
ATGTTAGGCTGGAAAACTGGGCTGTTATTTGCCTAGGGAGATTAGAGTATCGGTCGA	0.577
TGACAACTGAATGTGACCTTTTGGACCACAGCCTAGGGAGATTAGAGTATCGGTCGA	7.4
AGGGATTTCAGTGCCCTCATAAGAGACTTTGCCTAGGGAGATTAGAGTATCGGTCGA	2.22
TTCAAAGGACAGACTTTGGACCTGGCCCTCGCCTAGGGAGATTAGAGTATCGGTCGA	6.56
TTATCAGGACTTTGTGATTACATTGAGTCCGCCTAGGGAGATTAGAGTATCGGTCGA	1.97
CAGCTGTTATCTCTTTTGTGATAGAATGAAGCCTAGGGAGATTAGAGTATCGGTCGA	1.89
CAAGAGTGACCTTTGCTCCAGTTCCCAATAGCCTAGGGAGATTAGAGTATCGGTCGA	6.59
TTGCTTAAGCATAGCAAAAGTGACCTTTGCGCCTAGGGAGATTAGAGTATCGGTCGA	9.23
ATGTGACCTTTTGGACCACAGAGTGACCTGGCCTAGGGAGATTAGAGTATCGGTCGA	5.66
TGGCATCCCTGTGGTATTTGCTCTGTCATCGCCTAGGGAGATTAGAGTATCGGTCGA	1.39
TTAGCTATCAGTGTTGACCTCTGGACCTCAGCCTAGGGAGATTAGAGTATCGGTCGA	7.79
CTCTAACCACTTTGAAATAGTGACCTCTGCGCCTAGGGAGATTAGAGTATCGGTCGA	5.01
GGTTGTAAAATGAGGTCAGCATGGTGGGAGGCCTAGGGAGATTAGAGTATCGGTCGA	1.04
TGATAAAGGGGGCAAAGGGCATGGGCAGCTGCCTAGGGAGATTAGAGTATCGGTCGA	4.41
CTTTGGACTTTCAAAAGTTAAGGTCAAGACGCCTAGGGAGATTAGAGTATCGGTCGA	2.78
ATAGCAAAAGTGACCTTTGCTCCAGTTCCCGCCTAGGGAGATTAGAGTATCGGTCGA	8.52
ACCACTTTGAAATAGTGACCTCTGCTGGCCGCCTAGGGAGATTAGAGTATCGGTCGA	3.43
